Data origin, for the record: BindingDB's records for doi:10.1016/s0960-894x(01)00395-x

Target: Glucose-6-phosphatase catalytic subunit (Sus scrofa)
Experiment: Compound was evaluated for inhibition of Glucose-6-Phosphatase from Triton X-100 disrupted pig liver microsomes.
As shown below, each of these compounds has a reported IC50 value.
endpoint label: IC50 (µM)

- Clc1ccc(/C=N/N(Cc2ccccc2)Cc2ccccc2)cc1: 0.24
- C(=N\N(Cc1ccccc1)Cc1ccccc1)/c1ccco1: 1.1
- Clc1ccc(/C=N/N(Cc2ccccc2)Cc2ccccc2)cc1Cl: 2
- C(=N\N(Cc1ccccc1)Cc1ccccc1)/c1cccnc1: 3.7
- Clc1ccc(/C=N/N(Cc2ccccc2)Cc2ccccc2)s1: 0.17
- CN(C)c1ccc(/C=N/N(Cc2ccccc2)Cc2ccccc2)cc1: 100
- Oc1ccc(/C=N/N(Cc2ccccc2)Cc2ccccc2)cc1 [4-(Dibenzyl-hydrazonomethyl)-phenol]: 2.4
- COc1ccc(/C=N/N(Cc2ccccc2)Cc2ccccc2)cc1: 0.22
- CCc1ccc(/C=N/N(Cc2ccccc2)Cc2ccccc2)o1: 0.33
- C(=N\N(Cc1ccccc1)Cc1ccccc1)/c1cccs1: 1.5
- OCc1ccc(/C=N/N(Cc2ccccc2)Cc2ccccc2)o1: 16
- C(=N\N(Cc1ccccc1)Cc1ccccc1)/c1ccccc1: 1.5

* * *

Target: Glucose-6-phosphatase catalytic subunit (Sus scrofa)
Assay: Compound was evaluated for inhibition of Glucose-6-Phosphatase from Triton X-100 disrupted pig liver microsomes.
endpoint label: IC50

* Clc1cc(Cl)cc(/C=N/N(Cc2ccccc2)Cc2ccccc2)c1 | > 100 µM
* COc1ccc2c(c1)CCCC2=NN(Cc1ccccc1)Cc1ccccc1 | > 50 µM
* COc1ccccc1/C=N/N(Cc1ccccc1)Cc1ccccc1 | > 100 µM
